# Assay notes: CCTE_Shafer_MEA_dev_per_network_spike_spike_number_mean: CCTE's Neural Network Formation Assay for Mean Number of Spikes in a Network Spike, Shafer Lab (AID 2284053);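 also: fitted as decrease in spikes per network spike relative to DMSO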
The source made the active and inactive calls. The calls were made as follows: active = hit-call score of the fitted dose curve at least 0.9, where 1 is the maximum; inactive = score below 0.9.
The following molecules are listed with their measured AC50 values.

>>> experimental_value("ClC1(Cl)C2(Cl)C3(Cl)C4(Cl)C(Cl)(Cl)C5(Cl)C3(Cl)C1(Cl)C5(Cl)C24Cl (stereo unspecified)")
"2.68 µM (active)"
>>> experimental_value("Cn1sc(Cl)cc1=O")
"3.51 µM (active)"
>>> experimental_value("CC(C)(C)c1cc(O)ccc1O")
"5.63 µM (active)"
>>> experimental_value("O=C1C2(Cl)C3(Cl)C4(Cl)C(Cl)(Cl)C5(Cl)C3(Cl)C1(Cl)C5(Cl)C24Cl (stereo unspecified)")
"0.341 µM (active)"
>>> experimental_value("CC(=O)[O][Hg][c]1ccccc1")
"0.0238 µM (active)"

// moving on: another record for AC50
Value of measured AC50 for the entry C=C(C)C(=O)[O][Sn]([CH2]CCC)([CH2]CCC)[CH2]CCC : 0.0301 µM (active)

Value source: PubChem BioAssay (EPA / NIEHS)
